# experimentalTarget: PLK1 (Homo sapiens, UniProt P53350)
# Construct: endogenous in cells; host or cells: HeLa LgBit (Plk1-HiBit KI): HeLa cells stably expressing LgBit, with HiBit knocked into the endogenous Plk1 locus by CRISPR/Cas9
# Sequence (P53350 whole entry): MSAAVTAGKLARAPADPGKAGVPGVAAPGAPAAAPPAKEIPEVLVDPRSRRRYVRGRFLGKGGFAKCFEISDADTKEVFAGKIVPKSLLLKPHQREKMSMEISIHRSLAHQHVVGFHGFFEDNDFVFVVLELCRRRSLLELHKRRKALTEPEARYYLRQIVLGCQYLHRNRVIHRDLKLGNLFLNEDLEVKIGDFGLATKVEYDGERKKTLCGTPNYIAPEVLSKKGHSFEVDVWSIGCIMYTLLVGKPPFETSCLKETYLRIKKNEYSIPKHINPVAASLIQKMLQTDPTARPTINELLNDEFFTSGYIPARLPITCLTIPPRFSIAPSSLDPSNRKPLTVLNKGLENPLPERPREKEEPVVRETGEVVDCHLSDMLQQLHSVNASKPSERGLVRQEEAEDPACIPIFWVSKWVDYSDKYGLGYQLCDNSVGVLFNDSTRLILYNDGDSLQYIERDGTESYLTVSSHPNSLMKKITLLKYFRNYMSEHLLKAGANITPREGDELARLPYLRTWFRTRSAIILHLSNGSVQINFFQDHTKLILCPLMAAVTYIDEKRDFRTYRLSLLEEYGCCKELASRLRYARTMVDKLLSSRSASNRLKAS
# testProtocol: Luciferase assay for PLK1 in HeLa LgBit (Plk1-HiBit KI) cell line
# Assay type: cell-based
# conditionSet: 300 nM compound, luminescence after 9 hours, read-out: Activity: ratio of the luminescense value of compound treatment group to DMSO treatment group
recordedMetric: remaining activity at 0.3 µM

# example entries with known answers
COc1cc(C(=O)NC2CC3(CCN(CC4CCN(c5ccc(N6CCC(=O)NC6=O)cc5)CC4)CC3)C2)ccc1Nc1ncc2c(n1)N(C1CCCC1)CC(F)(F)C(=O)N2C [Compound 33]
< 70%
COc1cc(C(=O)NC2CCN(C(=O)CCN3CCN(c4ccc(C5CCC(=O)NC5=O)cc4)CC3)CC2)ccc1Nc1ncc2c(n1)N(C1CCCC1)CC(F)(F)C(=O)N2C (centres unmarked) [Compound 5]
< 60%
COc1cc(C(=O)NC2CCN(CCOCCOCCOCCOCCNc3ccc(C4CCC(=O)NC4=O)cc3)CC2)c(F)cc1Nc1ncc2c(n1)N(C1CCCC1)CC(F)(F)C(=O)N2C (centres unmarked) [Compound 1]
< 60%

// query Given the entry COc1cc(C(=O)NC2CCN(C(=O)CCCOc3ccc(C4CCC(=O)NC4=O)cc3)CC2)c(F)cc1Nc1ncc2c(n1)N(C1CCCC1)CC(F)(F)C(=O)N2C (centres unmarked) [Compound 3] , report its measured remaining activity at 0.3 µM.
// result < 60%

// query Given the entry COc1cc(C(=O)NC2CCN(C(=O)CCCOc3cccc(C4CCC(=O)NC4=O)c3)CC2)c(F)cc1Nc1ncc2c(n1)N(C1CCCC1)CC(F)(F)C(=O)N2C (centres unmarked) [Compound 2] , report its measured remaining activity at 0.3 µM.
// result < 60%

// query Given the entry COc1cc(C(=O)NC2CC3(CCN(CCC4CCN(c5ccc(C6CCC(=O)NC6=O)cc5F)CC4)CC3)C2)ccc1Nc1ncc2c(n1)N(C1CCCC1)CC(F)(F)C(=O)N2C (centres unmarked) [Compound 45] , report its measured remaining activity at 0.3 µM.
// result < 60%

###

remaining activity at 0.3 µM for assorted molecules
# experimentalTarget: PLK1 (Homo sapiens)
# Construct: endogenous in cells; host or cells: HeLa LgBit (Plk1-HiBit KI): HeLa cells stably expressing LgBit, with HiBit knocked into the endogenous Plk1 locus by CRISPR/Cas9
# testProtocol: Luciferase assay for PLK1 in HeLa LgBit (Plk1-HiBit KI) cell line
# Format: cell-based
# conditionSet: 300 nM compound, luminescence after 9 hours, read-out: Activity: ratio of the luminescense value of compound treatment group to DMSO treatment group

COc1cc(C(=O)NC2CCN(C(=O)CCCOc3cccc(C4CCC(=O)NC4=O)n3)CC2)ccc1Nc1ncc2c(n1)N(C1CCCC1)CC(F)(F)C(=O)N2C (stereo not drawn)
< 60%
COc1cc(C(=O)NC2CCC(CN(C)C3CCN(c4ccc(C5CCC(=O)NC5=O)cc4F)CC3)CC2)ccc1Nc1ncc2c(n1)N(C1CCCC1)CC(F)(F)C(=O)N2C (stereo not drawn)
< 30%

// query Given the entry COc1cc(C(=O)NC2CCN(C(=O)CCN3CCN(c4ccc(C5CCC(=O)NC5=O)cc4F)CC3)CC2)ccc1Nc1ncc2c(n1)N(C1CCCC1)CC(F)(F)C(=O)N2C (stereo not drawn) , report its measured remaining activity at 0.3 µM.
// result < 30%
